Tested on: HepG2
Assay: drug sensitivity score (DSS) for viability; higher = more toxic; extreme values may be limits of the assay
Details: 72 h
Quantity kind: drug sensitivity score

Look at this molecule and give its reported drug sensitivity score. NCCCCCC(=O)O [aminocaproic-acid]
0

Look up drug sensitivity score: Cc1cc(-c2cc(OC(=O)c3ccccc3)ccc2Cl)cc2nnc(Nc3ccc(OCCN4CCCC4)cc3)nc12
0

Could you share which drug sensitivity score value was measured for CN1CCc2c(c3ccccc3n2Cc2ccc(C(=O)NO)cc2)C1 [tubastatin-A] ?
5

Can you look up the measured drug sensitivity score of CCn1cc(C(=O)O)c(=O)c2cnc(N3CCNCC3)nc21 [pipemidic-acid] for me?
0

Fill blank: measured drug sensitivity score of the molecule CCn1cc(-c2ccnc3[nH]c(-c4cccc(CN(C)C)c4)cc23)c(-c2ccc(NC(=O)N(C)C)cc2)n1 is ____.
8.1

Further cases:
Bench note: what drug sensitivity score did CC(=O)Nc1cccc(Nc2ncnc(N3CCC(OCc4ccc(OC(F)(F)F)cc4)CC3)n2)c1C [TC-N-1752] show?
3.4

drug sensitivity score lookup needed for C[C@@H](N)c1ccc(C(=O)Nc2ccnc3[nH]ccc23)cc1 , thanks.
2.8

I am curious: what drug sensitivity score value has been reported for C=C(C)[C@@H]1CC[C@]2(C(=O)O)CC[C@]3(C)[C@H](CC[C@@H]4[C@@]5(C)CC[C@H](OC(=O)CC(C)(C)C(=O)O)C(C)(C)[C@@H]5CC[C@]43C)[C@@H]12 [bevirimat-dimeglumine] ?
0

Please look up its drug sensitivity score: C[C@@H](O)[C@H]1C(=O)N2C(C(=O)O)=C(S[C@@H]3CN[C@H](CNS(N)(=O)=O)C3)[C@H](C)[C@H]12 [doripenem]
0

Request the reported drug sensitivity score associated with O=C1c2c(O)cccc2C([C@@H]2O[C@H](CO)[C@@H](O)[C@H](O)[C@H]2O)c2cc(CO)cc(O)c21 (stereo partly specified) [aloin]
0

Please look up its drug sensitivity score: CCc1c2c(nc3ccc(O)cc13)-c1cc3c(c(=O)n1C2)COC(=O)[C@]3(O)CC [SN-38]
32.4

Hey, just so you know, these numbers are from the supplement of paper PMC13380429.
